FYI, the data here is from the supplement of paper PMC10065799.

system: c-Src; assay: phosphorylation enrichment, bacterial display (enrichment ratio); higher = better substrate or ligand; peptides without Tyr show the background
quantity: phosphorylation enrichment
Just the number, please, no unit attached.

polymer-sequence: DPLASYLDKVR [KRT10_Y160_R156P]
quantity: phosphorylation enrichment
numeric-readout: 0.44

polymer-sequence: SLFNGYVFSGV [NEIL3_Y71_YF]
quantity: phosphorylation enrichment
numeric-readout: 0.418

polymer-sequence: RLLVFYPWTQR [HBB_Y36_V35F]
quantity: phosphorylation enrichment
numeric-readout: 0.509

polymer-sequence: PGVNYYFRVSA
quantity: phosphorylation enrichment
numeric-readout: 0.331

polymer-sequence: SIRYNYLLDVL [FGFR4_Y237]
quantity: phosphorylation enrichment
numeric-readout: 0.443

Ask: Bench note: what phosphorylation enrichment did VVQGIYGYHHY [UFSP2_Y285] show?
Reply: 8.86

Ask: What phosphorylation enrichment value was documented for this sequence, GVLKEYGVKVL [CPS1_Y529] ?
Reply: 0.424

Ask: Bench note: what phosphorylation enrichment did TFQFKYPEGSS [TGM4_Y440_E437Q_YF] show?
Reply: 0.427

Ask: Which value of phosphorylation enrichment has been reported for LSQDVYEEDSF [RET_Y900_R897Q_YF] in the records?
Reply: 0.852

Ask: Consider the sequence shown here: KCLAVYQAGAR [APOE_Y180_R176C] What is its recorded phosphorylation enrichment?
Reply: 2.45

Ask: Which value of phosphorylation enrichment has been reported for TVEDHDFEGGI [TKT_Y563_Y563D_YF] in the records?
Reply: 0.472

---

target: Grb2 SH2 (UniProt P62993); assay: SH2 binding enrichment of the phosphorylated peptide, bacterial display (enrichment ratio); higher = better substrate or ligand; peptides without Tyr show the background
Sequence (P62993 whole entry, looked up): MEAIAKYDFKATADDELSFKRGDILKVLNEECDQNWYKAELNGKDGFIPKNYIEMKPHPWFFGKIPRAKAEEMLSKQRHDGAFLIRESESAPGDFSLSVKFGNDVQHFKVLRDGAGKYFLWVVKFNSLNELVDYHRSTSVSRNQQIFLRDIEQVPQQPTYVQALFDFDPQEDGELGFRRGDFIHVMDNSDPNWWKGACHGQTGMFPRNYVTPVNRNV
quantity: SH2 binding enrichment
// response body must contain only the number

The examples below pair each entry with its known result.
polymer-sequence: YSIAQYCCRMG [LRRK2_Y2023_G2019S]
SH2 binding enrichment: 1.14
//
polymer-sequence: PSAELYSNALP [PDGFRB_Y716]
SH2 binding enrichment: 1.19
//
polymer-sequence: FVFSFYHAFSG [ACTN4_Y265_S262F_YF]
SH2 binding enrichment: 1.55

Ask: Data request, read-out SH2 binding enrichment, for FNSLLYQVPTS [CALCOCO2_Y358_P357L]
Reply: 0.818

Ask: # query: SH2 binding enrichment of entry GKANRYFSPNF [PTEN_Y336_D331G]
Reply: 0.967

---

target: EPHB2 (UniProt P29323); test: phosphorylation enrichment, bacterial display (enrichment ratio); higher = better substrate or ligand; peptides without Tyr show the background
Sequence (P29323 whole entry, looked up): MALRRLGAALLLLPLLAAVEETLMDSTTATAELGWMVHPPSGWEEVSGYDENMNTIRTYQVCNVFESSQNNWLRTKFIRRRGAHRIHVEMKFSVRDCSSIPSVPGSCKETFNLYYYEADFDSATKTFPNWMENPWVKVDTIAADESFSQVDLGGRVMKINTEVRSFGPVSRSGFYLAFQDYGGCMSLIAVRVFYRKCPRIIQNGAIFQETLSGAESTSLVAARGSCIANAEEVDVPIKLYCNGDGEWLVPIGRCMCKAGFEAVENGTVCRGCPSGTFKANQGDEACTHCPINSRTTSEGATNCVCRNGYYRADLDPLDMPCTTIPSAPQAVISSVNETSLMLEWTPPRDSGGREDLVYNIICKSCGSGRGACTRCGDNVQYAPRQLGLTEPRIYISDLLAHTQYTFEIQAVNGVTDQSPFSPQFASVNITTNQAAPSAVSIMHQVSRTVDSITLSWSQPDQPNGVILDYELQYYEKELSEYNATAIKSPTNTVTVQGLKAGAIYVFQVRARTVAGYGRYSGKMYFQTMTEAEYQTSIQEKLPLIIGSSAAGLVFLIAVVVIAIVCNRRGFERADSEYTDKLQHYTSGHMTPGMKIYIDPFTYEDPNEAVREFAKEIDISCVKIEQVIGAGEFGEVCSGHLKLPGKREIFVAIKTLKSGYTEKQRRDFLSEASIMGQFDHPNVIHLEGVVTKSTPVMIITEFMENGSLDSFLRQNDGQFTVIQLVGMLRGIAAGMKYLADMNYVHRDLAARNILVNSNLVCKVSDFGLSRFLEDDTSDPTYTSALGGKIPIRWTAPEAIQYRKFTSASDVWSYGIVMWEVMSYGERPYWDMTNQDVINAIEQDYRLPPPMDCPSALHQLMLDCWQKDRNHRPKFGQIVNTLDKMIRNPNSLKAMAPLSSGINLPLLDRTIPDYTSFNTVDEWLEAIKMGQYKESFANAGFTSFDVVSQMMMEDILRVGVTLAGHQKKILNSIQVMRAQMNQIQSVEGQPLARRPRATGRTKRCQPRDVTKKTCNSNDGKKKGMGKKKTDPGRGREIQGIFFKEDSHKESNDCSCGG
# label = True if phosphorylation enrichment >= 0.5 else False

polymer-sequence: KILGTYYETGS [PAX2_Y72_R71T]
class-assignment: True
//
polymer-sequence: VVKTVYSLQPP [KNSTRN_Y87]
class-assignment: False
//
polymer-sequence: FATAGYGSLEA [EPHA10_Y959_A956T]
class-assignment: False
//
polymer-sequence: PFSSPYENSLI [EPOR_Y489_N487S_YF]
class-assignment: True
//
polymer-sequence: FKDGQYWIRGQ [ACSF3_Y466_R471Q]
class-assignment: True

Ask: Could you verify whether the entry EREFKYDAHNF [OAT_Y50_G51D_YF] shows phosphorylation enrichment of no less than 0.5?
Reply: False

Ask: State whether the measured phosphorylation enrichment reaches 0.5, counting equality as reaching it, for TSNQEYLDLSM [FGFR1_Y766]
Reply: True

Ask: Check this sequence for phosphorylation enrichment at or above 0.5: QCTSAYLLQPE [NANS_Y188_P189L]
Reply: True

Ask: I'd appreciate it if you could say whether EERNTYVNTTL [TEK_Y1102_K1100N] has phosphorylation enrichment at least equal to 0.5.
Reply: True

Ask: Given the entry EFHRLYEEFTR [PIK3R1_Y467_D464H_YF] , answer whether its phosphorylation enrichment meets or surpasses 0.5.
Reply: True

Ask: Is the recorded value of phosphorylation enrichment equal to or greater than 0.5 for this sequence? ESAAIYNPVIY [RHO_Y301_K296E]
Reply: True

Ask: Check the entry RSAGKYDVYFI [MECP2_Y120_L124F] : does phosphorylation enrichment equal or exceed 0.5?
Reply: False

Ask: Confirm if phosphorylation enrichment reported for the sequence `WANPEYTGGFK` is 0.5 or above.
Reply: False

Ask: Could you verify whether the entry NFFDLYGGEKF [PTPN11_Y66_D61N_YF] shows phosphorylation enrichment of no less than 0.5?
Reply: True

Ask: Answer whether phosphorylation enrichment of CTTLHYNYMCN [TP53_Y234_I232L] is greater than or equal to 0.5.
Reply: True

Ask: I'd appreciate it if you could say whether SLALFYRKVYH [RBL1_Y792] has phosphorylation enrichment at least equal to 0.5.
Reply: True

---

molecular target: Fyn (UniProt P06241); assay: phosphorylation enrichment, bacterial display (enrichment ratio); higher = better substrate or ligand; peptides without Tyr show the background
Sequence (P06241 whole entry, looked up): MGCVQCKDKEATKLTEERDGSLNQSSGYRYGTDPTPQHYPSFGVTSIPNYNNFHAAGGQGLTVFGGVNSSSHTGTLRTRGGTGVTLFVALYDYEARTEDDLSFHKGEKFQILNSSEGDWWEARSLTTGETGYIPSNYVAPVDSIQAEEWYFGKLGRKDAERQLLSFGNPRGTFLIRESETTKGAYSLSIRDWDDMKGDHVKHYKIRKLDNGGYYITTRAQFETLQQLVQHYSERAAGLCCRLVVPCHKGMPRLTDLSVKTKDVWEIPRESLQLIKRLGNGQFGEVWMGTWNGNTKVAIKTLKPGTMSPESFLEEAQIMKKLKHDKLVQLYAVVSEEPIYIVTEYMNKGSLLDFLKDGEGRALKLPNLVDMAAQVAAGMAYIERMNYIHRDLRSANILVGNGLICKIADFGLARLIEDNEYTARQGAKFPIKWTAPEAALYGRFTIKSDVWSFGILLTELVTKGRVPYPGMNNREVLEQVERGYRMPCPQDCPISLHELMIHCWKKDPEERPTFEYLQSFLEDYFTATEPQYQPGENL
Listed below: phosphorylation enrichment values for each entry.
// print number alone

Use these answered entries as a reference point.
polymer-sequence: FATAGYGSLEA [EPHA10_Y959_A956T]
phosphorylation enrichment: 0.441
--
polymer-sequence: SKNSKCNAEST [PSEN1_Y315_Y315C]
phosphorylation enrichment: 0.379
--
polymer-sequence: EKKDLYKAGEQ [CFH_Y1008_V1007L]
phosphorylation enrichment: 0.43
--
polymer-sequence: GRVFVYHLSEQ [ITGAE_Y551_R552H_YF]
phosphorylation enrichment: 0.68
--
polymer-sequence: EKRDAYVSCLN [GSR_Y150_R153C]
phosphorylation enrichment: 0.481

Ask: Need phosphorylation enrichment of YRIGPYQPSVP [MATR3_Y784_N787S] , thanks.
Reply: 0.514

Ask: Could you share which phosphorylation enrichment value was measured for GGSSPYSRRLP [CDK13_Y351] ?
Reply: 0.403

Ask: # input sequence: ACQGKYTPSGQ [ALDOA_Y343] ; wanted: its phosphorylation enrichment
Reply: 0.479

Ask: Entry MASISYDYCRV [BST2_Y6_T4I] : reported phosphorylation enrichment = ?
Reply: 0.565

Ask: Which phosphorylation enrichment is listed for PLSGEYFTLQI [TP53_Y327_D324S] ?
Reply: 4.49

Ask: # query: phosphorylation enrichment of entry SWSTSYSGFRF [NKAPL_Y91_YF]
Reply: 0.739

Ask: Which phosphorylation enrichment reading was recorded for the sequence KQELVYTNKKL [OPTN_Y356] ?
Reply: 0.441

Ask: Dear colleague, I am looking for the recorded phosphorylation enrichment of the following sequence: PFSSPYENSLI [EPOR_Y489_N487S_YF]
Reply: 1.34

---

test system: AncSZ; experiment: phosphorylation enrichment, bacterial display (enrichment ratio); higher = better substrate or ligand; peptides without Tyr show the background
quantity: phosphorylation enrichment

Example results:
polymer-sequence: PFSSPYENSLI [EPOR_Y489_N487S_YF]
quantity: phosphorylation enrichment
result: 1.4

polymer-sequence: ELTTCYRKKCS [CCBE1_Y70_C75S]
quantity: phosphorylation enrichment
result: 0.764

polymer-sequence: KMKGDYYRSLA [YWHAG_Y130_Y133S]
quantity: phosphorylation enrichment
result: 0.54

polymer-sequence: PVLSLYASGRT [ACTA1_Y145_A140P]
quantity: phosphorylation enrichment
result: 1.14

polymer-sequence: AKLKDYYIFNK [CCDC42_Y149]
quantity: phosphorylation enrichment
result: 0.596

Ask: Given DDEVFYSPRSL [OTC_Y317] , state its recorded phosphorylation enrichment.
Reply: 1.67

Ask: Find the recorded phosphorylation enrichment belonging to HILFRYPKEFQ [IDS_Y234_P231L] and report it.
Reply: 1.33

Ask: Any idea what its phosphorylation enrichment is? The sequence is QPTPGYEVGQR [TSC2_Y1788_E1783Q]
Reply: 0.637

Ask: I am curious: what phosphorylation enrichment value has been reported for QEIATYPRLLE [KRT14_Y415_R416P] ?
Reply: 1.08

---

target: c-Src SH2; test: SH2 binding enrichment of the phosphorylated peptide, bacterial display (enrichment ratio); higher = better substrate or ligand; peptides without Tyr show the background
Examples of sequences with documented SH2 binding enrichment follow.
Output spec: single numeric token, no unit.

polymer-sequence: EVEPTYVVLYD [ERCC4_Y577_R576T]
SH2 binding enrichment: 0.532

Ask: Bench note: what SH2 binding enrichment did KILGTYYETGS [PAX2_Y72_R71T] show?
Reply: 1.23

Ask: Tell me the measured SH2 binding enrichment of SSSGAYGGGYG [KRT19_Y61] , please.
Reply: 0.506

Ask: Fill blank: measured SH2 binding enrichment of the sequence CTTIHFNFMCN [TP53_Y234_Y234F_YF] is ____.
Reply: 1.93

Ask: What value of measured SH2 binding enrichment is listed for FVSIVYNDSGE [TSC2_Y1650] ?
Reply: 0.705

Ask: // lookup SH2 binding enrichment for RNLDTYQKRLR [PLA2G2D_Y126]
Reply: 0.629

Ask: Need SH2 binding enrichment, item FSQQTYCRVSN [ABCD1_Y180_Y181C]
Reply: 1.02

Ask: # input sequence: KEAQVYQAFKL [SUCLG2_Y343] ; wanted: its SH2 binding enrichment
Reply: 0.408

Ask: Could you tell me which SH2 binding enrichment is on file for RHPYFFAPELL [ALB_Y174_Y174F] ?
Reply: 0.954
